- experiment_notes: qHTS Assay for Inhibitors of Bacillus subtilis Sfp phosphopantetheinyl transferase (PPTase): SAR in B subtilis HM489
- experimental_conditions: B. subtilis HM489 whole-cell Sfp-dependent phenotype; series mostly up to 114 µM
Results filed as inconclusive are left out. Active and inactive are the calls of the source. The call rests on the fitted dose curve; in most records, active means well fitted inhibition curve with a large enough effect; inconclusive means small, poorly fitted or top-dose-only effect; inactive means flat fitted curve, though single readings scatter.
Reply using exactly one outcome from active, inactive

Consider the following illustrative entries.
- COc1ccnc(NC(=S)N2CCN(c3ccc(Cl)cc3Cl)CC2)c1: active
- Cc1ccnc(NC(=S)N[C@@H]2CCN(c3cccc(C(F)(F)F)c3)C2)c1: active
- Cc1ccnc(NC(=S)N2CCN(c3cccc(C(F)(F)F)c3)CC2)c1: active
- Cc1ccnc(NC(=S)N2CCCc3ccc(C(F)(F)F)cc32)c1: inactive
- Cc1cc(C)nc(NC(=S)N2CCN(c3ccc(F)c(F)c3F)CC2)c1: active

Next compound, please.
Ask: Write down the call the test reported for this compound. Item: `Cc1ccnc(NC(=S)Nc2cccc(C(F)(F)F)c2)c1`
Reply: active

###

- experiment_notes: qHTS Assay for Inhibitors of Bacillus subtilis Sfp phosphopantetheinyl transferase (PPTase): SAR in B subtilis HM489
- experimental_conditions: B. subtilis HM489 whole-cell Sfp-dependent phenotype; series mostly up to 114 µM
Results filed as inconclusive are left out. Calls of active or inactive are those of the source. The call rests on the fitted dose curve; in most records, active means well fitted inhibition curve with a large enough effect; inconclusive means small, poorly fitted or top-dose-only effect; inactive means flat fitted curve, though single readings scatter.
Reply using exactly one outcome from y for active, n for inactive

* Cc1ccnc(NC(=S)N2CCN(c3cc(C(F)(F)F)cc(C(F)(F)F)c3)CC2)c1 | y

Ask: Write down the call the test reported for this compound. Item: `FC(F)(F)c1cccc(N2CCN(C(=S)Nc3cc(C(F)(F)F)ccn3)CC2)c1`
Reply: y

Ask: Write down the call the test reported for this compound. Item: Cc1ccnc(NC(=S)N2CC3CN(c4ncc(C(F)(F)F)cc4Cl)CC3C2)c1 (stereo not given)
Reply: y

Ask: Write down the call the test reported for this compound. Item: `Cc1ccnc(NC(=S)N2CCCN(c3cccc(C(F)(F)F)c3)CC2)c1`
Reply: y

Ask: Write down the call the test reported for this compound. Item: `COc1cccc(NC(=S)N2CCN(c3ccc(Cl)c(Cl)c3)CC2)n1`
Reply: n
